biological target: cyclin G-associated kinase (GAK) (Homo sapiens); test: Frontal affinity chromatography on GAK capillary column; type: binding
Sequence (O14976 20-347): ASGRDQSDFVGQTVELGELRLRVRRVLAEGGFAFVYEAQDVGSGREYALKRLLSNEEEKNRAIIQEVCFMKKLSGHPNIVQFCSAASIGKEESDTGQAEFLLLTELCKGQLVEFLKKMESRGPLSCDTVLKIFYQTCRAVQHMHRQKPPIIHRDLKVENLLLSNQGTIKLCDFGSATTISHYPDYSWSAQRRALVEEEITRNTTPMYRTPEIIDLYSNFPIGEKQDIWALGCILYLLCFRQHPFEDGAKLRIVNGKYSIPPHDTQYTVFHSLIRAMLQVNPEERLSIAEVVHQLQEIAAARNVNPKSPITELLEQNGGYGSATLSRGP
measuredAttribute: pKd
Please report pKd as the negative decimal logarithm of the molar concentration, giving only the number.

Request: So what does the record say about pKd for Nc1ncnc2c1ncn2[C@@H]1O[C@H](CO)[C@@H](O)[C@H]1O [adenosine] ?
Result: 4.20
